# MEASUREMENT_NOTES: Pharmacokinetics and bioavailability in male mice after a single dose
# Format: in vivo
# APPLIED_CONDITIONS: mouse, plasma, intravenous, 2 mg/kg
MEASUREMENT_KIND: clearance (mL/min/kg)
Enter your answer as a number in mL/min/kg; do not include the unit.

Illustrative cases are given below, each with its answer.
MOLECULE	OBSERVED
C=C(C)c1cnc(-c2cc(Cl)ccc2F)cc1Nc1ccncc1C(=O)NC(C)(C)CO [compound 8]	103
C=C(C)c1c(Nc2ccncc2C(=O)NC[C@H](C)O)cc(-c2cc(Cl)ccc2F)nc1N (single isomer, unassigned) [23a]	66
CCc1cnc(-c2cc(Cl)ccc2F)cc1Nc1ccncc1C(=O)NC[C@H](C)O (single isomer, unassigned) [11a]	24.7

// next item, clearance requested
[ask] Given the entry COc1cnc(-c2cc(Cl)ccc2F)cc1Nc1ccncc1C(=O)NC[C@H](C)O (single isomer, unassigned) [13a] , report its measured clearance.
[reply] 20.7

###

# MEASUREMENT_NOTES: Plasma and brain concentrations at 0.5 and 1 h in mice
# Type: in vivo
# APPLIED_CONDITIONS: male, mouse, plasma, 2 mg/kg; IV, 1 h; read-out: Plasma Concentration
Measured concentration at 1 h, listed per entry.
The answer consists of two parts: a number and, after it, its unit.

[ask] Given the entry CC(C)c1cnc(-c2cc(Cl)ccc2F)cc1Nc1ccncc1C(=O)NCCN , report its measured concentration at 1 h.
[reply] 183 nM

[ask] Given the entry CC(C)c1cnc(-c2cc(Cl)ccc2F)cc1Nc1ccncc1C(=O)NC(CO)CO , report its measured concentration at 1 h.
[reply] 967 nM

[ask] Given the entry C[C@H](O)CNC(=O)c1cnccc1Nc1cc(-c2cc(Cl)ccc2F)ncc1N(C)C (single isomer, unassigned) [16a] , report its measured concentration at 1 h.
[reply] 1230 nM

###

# STUDY_SYSTEM: ALK6 (BMPR1B) (Homo sapiens (Human))
# Sequence (O00238 14-502): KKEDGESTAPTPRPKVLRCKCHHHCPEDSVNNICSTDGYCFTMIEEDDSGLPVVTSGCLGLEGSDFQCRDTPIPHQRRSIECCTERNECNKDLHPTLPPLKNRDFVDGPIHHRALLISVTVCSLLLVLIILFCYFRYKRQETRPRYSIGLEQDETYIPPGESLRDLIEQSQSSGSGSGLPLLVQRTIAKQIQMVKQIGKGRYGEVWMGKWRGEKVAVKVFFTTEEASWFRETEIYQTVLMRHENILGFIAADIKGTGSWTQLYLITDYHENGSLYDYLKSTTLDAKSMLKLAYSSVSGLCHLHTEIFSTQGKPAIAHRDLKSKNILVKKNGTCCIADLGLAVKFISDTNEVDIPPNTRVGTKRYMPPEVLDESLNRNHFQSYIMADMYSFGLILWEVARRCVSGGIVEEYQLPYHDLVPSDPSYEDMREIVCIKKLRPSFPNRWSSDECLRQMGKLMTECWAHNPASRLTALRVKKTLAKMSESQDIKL
# MEASUREMENT_NOTES: In vitro kinase assay, ALK6
# Format: biochemical
MEASUREMENT_KIND: IC50

[ask] Given the entry CC(O)CNC(=O)c1c[nH]nc1Nc1cc(-c2cc(Cl)ccc2F)ncc1C(C)C (single isomer, unassigned) [21a] , report its measured IC50.
[reply] > 1000 µM

###

# MEASUREMENT_NOTES: Pharmacokinetics and bioavailability in male mice after a single dose
# Type: in vivo
# APPLIED_CONDITIONS: mouse, plasma, intravenous, 2 mg/kg
MEASUREMENT_KIND: AUC(0-t) (µM·h)
Enter your answer as a number in µM·h; do not include the unit.

MOLECULE	MEASUREMENT_KIND	OBSERVED
CC(C)c1cnc(-c2cc(Cl)ccc2F)cc1Nc1ccncc1C(=O)NC[C@H](C)O (single isomer, unassigned)	AUC(0-t)	1.19

[ask] Given the entry C=C(C)c1cnc(-c2cc(Cl)ccc2F)cc1Nc1ccncc1C(=O)NC[C@H](C)O (single isomer, unassigned) , report its measured AUC(0-t).
[reply] 2.56

[ask] Given the entry CCc1cnc(-c2cc(Cl)ccc2F)cc1Nc1ccncc1C(=O)NC[C@H](C)O (single isomer, unassigned) [11a] , report its measured AUC(0-t).
[reply] 3.15

[ask] Given the entry C=C(C)c1c(Nc2ccncc2C(=O)NC[C@H](C)O)cc(-c2cc(Cl)ccc2F)nc1N (single isomer, unassigned) [23a] , report its measured AUC(0-t).
[reply] 1.11

Provenance of the data: patent US10030004B2
